Hey, just so you know, these numbers are from patent US20050181376A1.

# System: mouse microsomal triglyceride transfer protein mRNA
# assayInfo: Antisense inhibition of mouse microsomal triglyceride transfer protein mRNA levels in primary hepatocytes, quantitative real-time PCR
# Type: cell-based
# Design: concentration or dose not given beside the values
# conditionParameters: averages from two experiments
# Method: Primary mouse hepatocytes were prepared from CD-1 mice purchased from Charles River Labs (Wilmington, Mass.) and were routinely cultured in Hepatocyte Attachment Media (Gibco) supplemented with 10% Fetal Bovine Serum (Gibco/Life Technologies, Gaithersburg, Md.), 250 nM dexamethasone (Sigma), and 10 nM bovine insulin (Sigma). Cells were seeded into 96-well plates (Falcon-Primaria #3872) at a density of 10000 cells/well for use in RT-PCR analysis. […]
Strand notation (5' to 3'): a small letter for the sugar, then the base; units joined by * are phosphorothioate-linked, units joined directly phosphodiester-linked; [ ] holds rarer units or linkages, { } end groups; capitals alone tell only the bases. e = 2'-O-(2-methoxyethyl) (MOE); [5mC] = 5-methylcytosine; d = 2'-deoxy (DNA)
% INHIB (inhibition of mouse microsomal triglyceride transfer protein mRNA levels) values for the substances below.
Unit % implied. Number only.

144482 (eG*eA*eA*eG*eT*d[5mC]*d[5mC]*dG*dG*dA*dG*dG*dT*dG*d[5mC]*eT*eG*eG*eA*eT; antisense) [compound 144482]	3

## Task Name the recorded % INHIB (inhibition of mouse microsomal triglyceride transfer protein mRNA levels) for 144500 (e[5mC]*e[5mC]*e[5mC]*eT*eT*dT*d[5mC]*dA*d[5mC]*d[5mC]*dA*d[5mC]*dG*d[5mC]*dT*eG*eA*e[5mC]*eA*eG; antisense) [compound 144500] .
## Result 34

## Task Item under review: 144504 (eG*eA*eA*e[5mC]*eT*d[5mC]*d[5mC]*dA*dG*d[5mC]*d[5mC]*d[5mC]*dA*dG*d[5mC]*e[5mC]*eT*e[5mC]*eT*eG; antisense) [compound 144504] . Reported % INHIB (inhibition of mouse microsomal triglyceride transfer protein mRNA levels)?
## Result 0

## Task Give its % INHIB (inhibition of mouse microsomal triglyceride transfer protein mRNA levels) value. Item: 144473 (eG*e[5mC]*e[5mC]*eT*e[5mC]*d[5mC]*dA*dG*dG*dT*dT*dG*dT*d[5mC]*d[5mC]*eT*eT*e[5mC]*e[5mC]*e[5mC]; antisense) [compound 144473]
## Result 1

###

Measured % INHIB (inhibition of human microsomal triglyceride transfer protein mRNA levels) of individual entries
# System: human microsomal triglyceride transfer protein mRNA
# assayInfo: Antisense inhibition of human microsomal triglyceride transfer protein mRNA levels, quantitative real-time PCR
# conditionParameters: averages from two experiments
Strand notation (5' to 3'): a small letter for the sugar, then the base; units joined by * are phosphorothioate-linked, units joined directly phosphodiester-linked; [ ] holds rarer units or linkages, { } end groups; capitals alone tell only the bases. e = 2'-O-(2-methoxyethyl) (MOE); [5mC] = 5-methylcytosine; d = 2'-deoxy (DNA)
Write the number in % without appending the unit.

144430 (e[5mC]*eT*eA*eT*eG*dT*dA*dG*d[5mC]*d[5mC]*dA*dG*dT*dG*dT*eA*eG*eG*e[5mC]*eA; antisense) [compound 144430]	0

## Task Can you share its % INHIB (inhibition of human microsomal triglyceride transfer protein mRNA levels)? I mean this substance: 144429 (e[5mC]*eT*eT*eG*eA*d[5mC]*dG*dT*d[5mC]*d[5mC]*dA*dT*dG*dT*dA*eG*eG*eA*eT*eG; antisense) [compound 144429]
## Result 0

###

# System: mouse microsomal triglyceride transfer protein mRNA
# assayInfo: Antisense inhibition of mouse microsomal triglyceride transfer protein mRNA levels in primary hepatocytes, quantitative real-time PCR
# Type: cell-based
# Set-up: concentration or dose not given beside the values
# conditionParameters: averages from two experiments
Strand notation (5' to 3'): a small letter for the sugar, then the base; units joined by * are phosphorothioate-linked, units joined directly phosphodiester-linked; [ ] holds rarer units or linkages, { } end groups; capitals alone tell only the bases. e = 2'-O-(2-methoxyethyl) (MOE); [5mC] = 5-methylcytosine; d = 2'-deoxy (DNA)
quantityMeasured: % INHIB (inhibition of mouse microsomal triglyceride transfer protein mRNA levels) (%)
Number only, in %; omit the unit.

144488 (e[5mC]*eA*eG*e[5mC]*e[5mC]*dT*d[5mC]*dA*dG*d[5mC]*dA*dT*dA*d[5mC]*dT*eT*e[5mC]*eA*eG*eA; antisense) [compound 144488]	35
144496 (e[5mC]*eT*eG*e[5mC]*eA*dA*dT*dT*dA*dA*dG*d[5mC]*d[5mC]*dT*dT*e[5mC]*e[5mC]*eA*eG*e[5mC]; antisense) [compound 144496]	40
144484 (e[5mC]*e[5mC]*eT*eG*eG*dA*dG*dT*dA*dT*dG*dA*dT*dA*d[5mC]*eT*eG*e[5mC]*eT*eG; antisense) [compound 144484]	48

Moving on to another substance below.
## Task Sample 144495 (e[5mC]*eA*eG*eA*eA*dT*dG*d[5mC]*d[5mC]*dA*dG*dA*dG*d[5mC]*d[5mC]*eA*eG*eA*eG*eT; antisense) [compound 144495] — what was its % INHIB (inhibition of mouse microsomal triglyceride transfer protein mRNA levels)?
## Result 42

###

# Test system: mouse microsomal triglyceride transfer protein mRNA
# assayInfo: Antisense inhibition of mouse microsomal triglyceride transfer protein mRNA levels in primary hepatocytes, quantitative real-time PCR
# Format: cell-based
# Set-up: concentration or dose not given beside the values
# conditionParameters: averages from two experiments
Strand notation (5' to 3'): a small letter for the sugar, then the base; units joined by * are phosphorothioate-linked, units joined directly phosphodiester-linked; [ ] holds rarer units or linkages, { } end groups; capitals alone tell only the bases. e = 2'-O-(2-methoxyethyl) (MOE); [5mC] = 5-methylcytosine; d = 2'-deoxy (DNA)
quantityMeasured: % INHIB (inhibition of mouse microsomal triglyceride transfer protein mRNA levels) (%)
Field format: number, assumed %, no unit text.

## Task What measured % INHIB (inhibition of mouse microsomal triglyceride transfer protein mRNA levels) is associated with 144478 (e[5mC]*e[5mC]*e[5mC]*eT*eG*dG*dT*d[5mC]*dT*d[5mC]*dT*dT*d[5mC]*dT*dG*e[5mC]*eA*eA*eG*e[5mC]; antisense) [compound 144478] on mouse microsomal triglyceride transfer protein mRNA?
## Result 41

###

# Test system: mouse microsomal triglyceride transfer protein mRNA
# assayInfo: Antisense inhibition of mouse microsomal triglyceride transfer protein mRNA levels in primary hepatocytes, quantitative real-time PCR
# Format: cell-based
# Set-up: concentration or dose not given beside the values
# conditionParameters: averages from two experiments
# Experimental: Primary mouse hepatocytes were prepared from CD-1 mice purchased from Charles River Labs (Wilmington, Mass.) and were routinely cultured in Hepatocyte Attachment Media (Gibco) supplemented with 10% Fetal Bovine Serum (Gibco/Life Technologies, Gaithersburg, Md.), 250 nM dexamethasone (Sigma), and 10 nM bovine insulin (Sigma). Cells were seeded into 96-well plates (Falcon-Primaria #3872) at a density of 10000 cells/well for use in RT-PCR analysis. […]
quantityMeasured: % INHIB (inhibition of mouse microsomal triglyceride transfer protein mRNA levels)

TGCACAACGGTGAGCATGTA (all phosphorothioate, sugars by position and methylation of C not given here; 2'-MOE wings and deoxy gap) [ISIS 144492, 2′-MOE gapmer phosphorothioate antisense oligonucleotide to mouse MTP]	at least 30%
TTCCAGTGCTCCGCCAGAGA (all phosphorothioate, sugars by position and methylation of C not given here; 2'-MOE wings and deoxy gap) [ISIS 144481, 2′-MOE gapmer phosphorothioate antisense oligonucleotide to mouse MTP]	at least 30%
CAGCCTCAGCATACTTCAGA (all phosphorothioate, sugars by position and methylation of C not given here; 2'-MOE wings and deoxy gap) [ISIS 144488, 2′-MOE gapmer phosphorothioate antisense oligonucleotide to mouse MTP]	at least 30%

###

# Tested on: human microsomal triglyceride transfer protein mRNA
# assayInfo: Antisense inhibition of human microsomal triglyceride transfer protein mRNA levels, quantitative real-time PCR
# conditionParameters: averages from two experiments
Strand notation (5' to 3'): a small letter for the sugar, then the base; units joined by * are phosphorothioate-linked, units joined directly phosphodiester-linked; [ ] holds rarer units or linkages, { } end groups; capitals alone tell only the bases. e = 2'-O-(2-methoxyethyl) (MOE); [5mC] = 5-methylcytosine; d = 2'-deoxy (DNA)
quantityMeasured: % INHIB (inhibition of human microsomal triglyceride transfer protein mRNA levels)

CATGCCACATTGTGTCCCTT (antisense e[5mC]*eA*eT*eG*e[5mC]*d[5mC]*dA*d[5mC]*dA*dT*dT*dG*dT*dG*dT*e[5mC]*e[5mC]*e[5mC]*eT*eT) [ISIS 144441]	at least 30%
CAGTGCCCAGCTAGGAGTCA (antisense e[5mC]*eA*eG*eT*eG*d[5mC]*d[5mC]*d[5mC]*dA*dG*d[5mC]*dT*dA*dG*dG*eA*eG*eT*e[5mC]*eA) [ISIS 144407]	at least 30%
CGCTGGAAGTACTATCCGGC (antisense e[5mC]*eG*e[5mC]*eT*eG*dG*dA*dA*dG*dT*dA*d[5mC]*dT*dA*dT*e[5mC]*e[5mC]*eG*eG*e[5mC]) [ISIS 144439]	at least 30%
